Ref: PubChem BioAssay AID1476

Listed here are molecules together with their documented Potency.
target: Cruzipain (Trypanosoma cruzi) (UniProt P25779)
Sequence (P25779 123-467 limits assumed): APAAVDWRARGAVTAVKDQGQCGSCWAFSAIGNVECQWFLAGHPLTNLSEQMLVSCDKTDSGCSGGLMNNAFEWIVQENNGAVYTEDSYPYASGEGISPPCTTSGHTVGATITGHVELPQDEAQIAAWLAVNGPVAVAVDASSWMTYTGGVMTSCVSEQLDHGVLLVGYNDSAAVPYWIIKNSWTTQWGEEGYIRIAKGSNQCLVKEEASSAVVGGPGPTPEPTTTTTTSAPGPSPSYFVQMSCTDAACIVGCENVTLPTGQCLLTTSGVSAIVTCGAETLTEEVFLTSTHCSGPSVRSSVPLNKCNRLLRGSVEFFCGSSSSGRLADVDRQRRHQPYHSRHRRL
protocol.description: qHTS Assay for Promiscuous and Specific Inhibitors of Cruzain (without detergent); note: potency is the fitted concentration of half-maximal effect; nearly all actives have a fitted effect of over 40% in size
condition.context: purified cruzain, Z-FR-AMC fluorescence, no detergent
Method: Cruzain is a cysteine protease from the tropical parasite Trypanosoma cruzi. […] Cruzain was assayed by the use of fluorogenic coumarin-based substrate Z-FR-AMC: proteolytic cleavage releases AMC, whose fluorescence is measured at 360 nm excitation and 450 nm emission. […]
About 4,500 (2.2%) of roughly 200,000 compounds were called active. Another 12% or so got no clear call; they are omitted. Shown is part of a subset that was picked to be rich in actives.

S=c1nccc(-c2cc(Cl)sc2Cl)[nH]1 = 12.6 µM (active)
O=C(NCc1ccccn1)c1ccc2nc(-c3ccco3)c(-c3ccco3)nc2c1 = 25.1 µM (active)
Cc1ccc(C(=O)Nc2nnc(-c3cccs3)s2)cc1C = 15.8 µM (active)
O=C(/C=C/c1ccccc1)Nc1nnc(SCC(=O)c2ccc3ccccc3c2)s1 = 6.31 µM (active)

Look at this molecule and give its reported Potency. COc1ccc(C2CC(c3cccs3)=NN2C(=O)COC(=O)c2cc3ccccc3cc2O)cc1OC (stereo unspecified)
12.6 µM (active)

// same read-out, input: `CCOC(=O)c1sc(=S)n2c1[nH]c(=O)c1ccc(C(=O)OC)cc12`
25.1 µM (active)
